Value source: paper PMC2653189

- study system: UniProtKB P40763
- protocol text: Stat3/pY-peptide binding assay (SPR, BIAcore)

| structure as smiles | result unit | IC50 |
| --- | --- | --- |
| CCN1C(=O)C(=Cc2ccc(-c3cc(C(=O)O)ccc3Cl)o2)C(=O)N(CC)C1=S | µM | 114 |

* * *

- study system: Stat3 (Homo sapiens)
- Sequence (P40763 whole entry, species assumed): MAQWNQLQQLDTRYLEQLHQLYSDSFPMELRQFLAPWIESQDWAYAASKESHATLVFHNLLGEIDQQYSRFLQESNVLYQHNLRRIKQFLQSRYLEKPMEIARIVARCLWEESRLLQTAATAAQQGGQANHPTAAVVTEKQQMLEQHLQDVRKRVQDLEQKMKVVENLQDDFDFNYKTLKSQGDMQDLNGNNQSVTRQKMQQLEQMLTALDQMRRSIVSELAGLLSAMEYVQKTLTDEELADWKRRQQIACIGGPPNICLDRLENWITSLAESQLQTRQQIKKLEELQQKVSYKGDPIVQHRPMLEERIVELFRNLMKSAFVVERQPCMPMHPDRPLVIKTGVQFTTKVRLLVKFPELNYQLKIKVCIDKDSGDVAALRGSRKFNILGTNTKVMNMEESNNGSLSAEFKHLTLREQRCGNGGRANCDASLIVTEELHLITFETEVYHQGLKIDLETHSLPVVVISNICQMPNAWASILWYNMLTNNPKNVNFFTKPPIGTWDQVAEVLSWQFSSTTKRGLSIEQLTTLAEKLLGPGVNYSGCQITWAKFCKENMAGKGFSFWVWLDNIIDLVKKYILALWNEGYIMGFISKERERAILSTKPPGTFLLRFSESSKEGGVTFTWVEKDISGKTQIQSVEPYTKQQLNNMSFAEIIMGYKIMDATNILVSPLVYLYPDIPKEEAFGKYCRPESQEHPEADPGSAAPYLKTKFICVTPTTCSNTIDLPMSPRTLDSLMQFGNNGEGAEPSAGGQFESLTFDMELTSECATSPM
- protocol text: Stat3/pY-peptide binding assay (SPR, BIAcore)
- details: recombinant Stat3 500 nM; immobilized EGFR Y1068 phosphododecapeptide; 25°C; read-out: SPR IC50, inhibition of Stat3 binding to pY peptide ligand
pIC50: −log10 of the molar value.

| structure as smiles | study system | pIC50 |
| --- | --- | --- |
| CCOc1cc(C=C2C(=O)c3ccccc3C2=O)cc(Cl)c1OCc1cccc(C(=O)O)c1 | Stat3 (Homo sapiens) | 3.59 |
| O=C(O)c1ccc(C=CC(=O)c2ccc3c(c2)OCCO3)cc1 | Stat3 (Homo sapiens) | 3.35 |

* * *

- Tested on: IFN-γ-mediated Stat1 phosphorylation
- protocol text: Immunoblot of IFN-γ-mediated Stat1 phosphorylation in HepG2 cells
- Format: cell-based, human
- details: compound 300 µM 1 hour, IFN-γ 30 ng/ml 30 min
measured property: Block of IFN-γ-stimulated Stat1 phosphorylation

| compound | test value |
| --- | --- |
| O=C(O)CSc1cc(NS(=O)(=O)c2ccc(C(=O)O)cc2)c2ccccc2c1O [Cpd188] | did not |
| O=C(O)c1ccc(C=CC(=O)c2ccc3c(c2)OCCO3)cc1 [Cpd3] | did not |
| COC(=O)Cc1c(C)c2ccc(OCc3ccc(C(=O)OC)cc3)c(C)c2oc1=O [Cpd3-7] | did not |
| CCN1C(=O)C(=Cc2ccc(-c3ccc(C(=O)O)cc3)o2)SC1=S [Cpd30] | did not |
| CCOc1cc(C=C2C(=O)c3ccccc3C2=O)cc(Cl)c1OCc1cccc(C(=O)O)c1 [Cpd3-2] | did not |

* * *

Each item that follows carries a reported pIC50.
- Test system: IL-6-mediated Stat3 nuclear translocation (GFP-Stat3α)
- protocol text: HTFM nuclear translocation assay in MEF/GFP-Stat3α cells
- Assay type: cell-based, murine
- details: Mus musculus, compound 1 hour, then IL-6 200 ng/ml and IL-6sR 250 ng/ml 30 min, read-out: HTFM IC50, inhibition of IL-6-mediated Stat3 nuclear translocation
pIC50: −log10 of the molar value.
measured property: pIC50

| compound | study system | measured property | inequality operator | test value |
| --- | --- | --- | --- | --- |
| CCOc1cc(C=C2C(=O)c3ccccc3C2=O)cc(Cl)c1OCc1cccc(C(=O)O)c1 [Cpd3-2] | IL-6-mediated Stat3 nuclear translocation (GFP-Stat3α) | pIC50 | = | 3.82 |
| O=C(O)c1ccc(C=CC(=O)c2ccc3c(c2)OCCO3)cc1 [Cpd3] | IL-6-mediated Stat3 nuclear translocation (GFP-Stat3α) | pIC50 | = | 3.88 |
| CCN1C(=O)C(=Cc2ccc(-c3cc(C(=O)O)ccc3Cl)o2)C(=O)N(CC)C1=S [Cpd30-12] | IL-6-mediated Stat3 nuclear translocation (GFP-Stat3α) | pIC50 | < | 3.52 |
